Tested on: E. coli MB4827
MIC values, listed per item

Query string: Looking for the measured MIC of COc1cc(Cc2cnc(N)nc2N)cc(OC)c1OCCCn1cc(CNS(=O)(=O)c2cccc3c(N(C)C)cccc23)nn1 [compound 14a] , can you help?
Result string: > 64 µg/mL

Query string: Now this one: COc1cc(Cc2cnc(N)nc2N)cc(OC)c1OCCCCn1cc(CNS(=O)(=O)c2cccc3c(N(C)C)cccc23)nn1 [compound 14b]
Result string: > 64 µg/mL

Query string: Now this one: COc1cc(Cc2cnc(N)nc2N)cc(OC)c1OCCCCN=[N+]=[N-]
Result string: 16 µg/mL

Query string: Now this one: COc1cc(Cc2cnc(N)nc2N)cc(OC)c1OCCCN=[N+]=[N-]
Result string: 8 µg/mL

Query string: Now this one: COc1cc(Cc2cnc(N)nc2N)cc(OC)c1OCCCCn1cc(CNC(=O)Cc2cc(=O)oc3cc(N(C)C)ccc23)nn1 [compound 13b]
Result string: > 64 µg/mL

Query string: Now this one: COc1cc(Cc2cnc(N)nc2N)cc(OC)c1OCCCn1cc(CNc2ccc([N+](=O)[O-])c3nonc23)nn1 [12a]
Result string: > 64 µg/mL

* * *

MIC values, listed per item
Test system: E. coli tolC mutant
test summary: microbe, parasite or virus in culture
Format: cell-based, Escherichia coli
test conditions: Escherichia coli, read-out: MIC E. coli tolC mutant

- compound: "COc1cc(Cc2cnc(N)nc2N)cc(OC)c1OCCCn1cc(CNc2ccc([N+](=O)[O-])c3nonc23)nn1 [12a]"
  MIC: "2 µg/mL"
- compound: "COc1cc(Cc2cnc(N)nc2N)cc(OC)c1OCCCCn1cc(CNS(=O)(=O)c2cccc3c(N(C)C)cccc23)nn1 [compound 14b]"
  MIC: "0.5 µg/mL"
- compound: "COc1cc(Cc2cnc(N)nc2N)cc(OC)c1OCCCCn1cc(CNc2ccc([N+](=O)[O-])c3nonc23)nn1 [compound 12b]"
  MIC: "0.25 µg/mL"

Query string: Looking for the measured MIC of COc1cc(Cc2cnc(N)nc2N)cc(OC)c1OCCCCCN=[N+]=[N-] , can you help?
Result string: 0.125 µg/mL

Query string: Now this one: COc1cc(Cc2cnc(N)nc2N)cc(OC)c1OCCCCn1cc(CNC(=O)Cc2cc(=O)oc3cc(N(C)C)ccc23)nn1 [compound 13b]
Result string: 2 µg/mL

Query string: Now this one: COc1cc(Cc2cnc(N)nc2N)cc(OC)c1OCCCCN=[N+]=[N-]
Result string: 0.125 µg/mL

Query string: Now this one: COc1cc(Cc2cnc(N)nc2N)cc(OC)c1OCCCCCn1cc(CNC(=O)Cc2cc(=O)oc3cc(N(C)C)ccc23)nn1 [compound 13c]
Result string: 1 µg/mL

Query string: Now this one: COc1cc(Cc2cnc(N)nc2N)cc(OC)c1OCCCN=[N+]=[N-]
Result string: 0.25 µg/mL

Query string: Now this one: COc1cc(Cc2cnc(N)nc2N)cc(OC)c1OCCCn1cc(CNS(=O)(=O)c2cccc3c(N(C)C)cccc23)nn1 [compound 14a]
Result string: 0.5 µg/mL

* * *

Test system: E. coli MB4827
test summary: MIC determination, E. coli MB4827
Assay type: cell-based
test conditions: Escherichia coli, n = 4
MIC values, listed per item

- compound: "COc1cc(Cc2cnc(N)nc2N)cc(OC)c1OCCCCCN=[N+]=[N-]"
  MIC: "32 µg/mL"

Please look at the following compound next.
Query string: // lookup MIC | system=E. coli MB4827 | key= COc1cc(Cc2cnc(N)nc2N)cc(OC)c1OCCCCCn1cc(CNc2ccc([N+](=O)[O-])c3nonc23)nn1 [compound 12c]
Result string: > 64 µg/mL

* * *

MIC values, listed per item
Test system: E. coli lpxC mutant
test summary: microbe, parasite or virus in culture
Type: cell-based
test conditions: Escherichia coli, read-out: MIC E. coli lpxC mutant

- molecule: "COc1cc(Cc2cnc(N)nc2N)cc(OC)c1OCCCn1cc(CNC(=O)Cc2cc(=O)oc3cc(N(C)C)ccc23)nn1 [13a]"
  MIC: "> 64 mg/L"
- molecule: "COc1cc(Cc2cnc(N)nc2N)cc(OC)c1OCCCCCn1cc(CNc2ccc([N+](=O)[O-])c3nonc23)nn1 [compound 12c]"
  MIC: "> 64 mg/L"
- molecule: "COc1cc(Cc2cnc(N)nc2N)cc(OC)c1OCCCCCn1cc(CNS(=O)(=O)c2cccc3c(N(C)C)cccc23)nn1 [compound 14c]"
  MIC: "> 64 mg/L"

Please look at the following molecule next.
Query string: Looking for the measured MIC of COc1cc(Cc2cnc(N)nc2N)cc(OC)c1OCCCn1cc(CNc2ccc([N+](=O)[O-])c3nonc23)nn1 [12a] , can you help?
Result string: > 64 mg/L

* * *

MIC values, listed per item
Tested on: E. coli lpxC mutant
test summary: microbe, parasite or virus in culture
Assay type: cell-based
test conditions: Escherichia coli, read-out: MIC E. coli lpxC mutant

Query string: Looking for the measured MIC of COc1cc(Cc2cnc(N)nc2N)cc(OC)c1OCCCCn1cc(CNC(=O)Cc2cc(=O)oc3cc(N(C)C)ccc23)nn1 [compound 13b] , can you help?
Result string: > 64 µg/mL

Query string: Now this one: COc1cc(Cc2cnc(N)nc2N)cc(OC)c1OCCCn1cc(CNS(=O)(=O)c2cccc3c(N(C)C)cccc23)nn1 [compound 14a]
Result string: > 64 µg/mL

Query string: Now this one: COc1cc(Cc2cnc(N)nc2N)cc(OC)c1OCCCCCN=[N+]=[N-]
Result string: 8 µg/mL

Query string: Now this one: COc1cc(Cc2cnc(N)nc2N)cc(OC)c1OCCCCCn1cc(CNC(=O)Cc2cc(=O)oc3cc(N(C)C)ccc23)nn1 [compound 13c]
Result string: > 64 µg/mL

Query string: Now this one: COc1cc(Cc2cnc(N)nc2N)cc(OC)c1OCCCCn1cc(CNS(=O)(=O)c2cccc3c(N(C)C)cccc23)nn1 [compound 14b]
Result string: > 64 µg/mL

Query string: Now this one: COc1cc(Cc2cnc(N)nc2N)cc(OC)c1OCCCCn1cc(CNc2ccc([N+](=O)[O-])c3nonc23)nn1 [compound 12b]
Result string: > 64 µg/mL

* * *

test summary: Cytotoxicity assay (resazurin), HEK 293
Assay type: cell-based
test conditions: human, HEK293 cells, 20 h incubation, highest concentration 60 μM
observed property: CC50 at 20 h

Reference set, count: 8
- compound: "COc1cc(Cc2cnc(N)nc2N)cc(OC)c1OCCCn1cc(CNS(=O)(=O)c2cccc3c(N(C)C)cccc23)nn1 [compound 14a]"
  observed property: "CC50 at 20 h"
  obs value: "59 µM"
- compound: "COc1cc(Cc2cnc(N)nc2N)cc(OC)c1OCCCCn1cc(CNC(=O)Cc2cc(=O)oc3cc(N(C)C)ccc23)nn1 [compound 13b]"
  observed property: "CC50 at 20 h"
  obs value: "> 60 µM"
- compound: "COc1cc(Cc2cnc(N)nc2N)cc(OC)c1OCCCCCn1cc(CNS(=O)(=O)c2cccc3c(N(C)C)cccc23)nn1 [compound 14c]"
  observed property: "CC50 at 20 h"
  obs value: "32 µM"
- compound: "COc1cc(Cc2cnc(N)nc2N)cc(OC)c1OCCCCN=[N+]=[N-]"
  observed property: "CC50 at 20 h"
  obs value: "> 60 µM"
- compound: "COc1cc(Cc2cnc(N)nc2N)cc(OC)c1OCCCn1cc(CNc2ccc([N+](=O)[O-])c3nonc23)nn1 [12a]"
  observed property: "CC50 at 20 h"
  obs value: "> 60 µM"
- compound: "COc1cc(Cc2cnc(N)nc2N)cc(OC)c1OCCCCCn1cc(CNC(=O)Cc2cc(=O)oc3cc(N(C)C)ccc23)nn1 [compound 13c]"
  observed property: "CC50 at 20 h"
  obs value: "> 60 µM"
- compound: "COc1cc(Cc2cnc(N)nc2N)cc(OC)c1OCCCCn1cc(CNc2ccc([N+](=O)[O-])c3nonc23)nn1 [compound 12b]"
  observed property: "CC50 at 20 h"
  obs value: "> 60 µM"
- compound: "COc1cc(Cc2cnc(N)nc2N)cc(OC)c1OCCCCCN=[N+]=[N-]"
  observed property: "CC50 at 20 h"
  obs value: "> 60 µM"

Please look at the following compound next.
Query string: Looking for the measured CC50 at 20 h of COc1cc(Cc2cnc(N)nc2N)cc(OC)c1OCCCCn1cc(CNS(=O)(=O)c2cccc3c(N(C)C)cccc23)nn1 [compound 14b] , can you help?
Result string: 59 µM

* * *

Assay read-out pIC50; system under study: E. coli dihydrofolate reductase (eDHFR) (Escherichia coli).
Sequence (P0ABQ4 whole entry): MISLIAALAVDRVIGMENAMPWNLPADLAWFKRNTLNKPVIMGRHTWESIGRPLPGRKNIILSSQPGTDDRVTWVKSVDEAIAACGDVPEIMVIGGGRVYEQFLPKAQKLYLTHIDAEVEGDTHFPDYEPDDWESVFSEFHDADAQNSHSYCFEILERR
Scale for pIC50: -log10 of concentration given in mol/L; no unit attached.

Reference set, count: 2
- compound: "COc1cc(Cc2cnc(N)nc2N)cc(OC)c1OCCCCn1cc(CNc2ccc([N+](=O)[O-])c3nonc23)nn1 [compound 12b]"
  obs value: 6.83
- compound: "COc1cc(Cc2cnc(N)nc2N)cc(OC)c1OCCCn1cc(CNc2ccc([N+](=O)[O-])c3nonc23)nn1 [12a]"
  obs value: 6.60

Query string: // lookup pIC50 | system=E. coli dihydrofolate reductase (eDHFR) (Escherichia coli) | key= COc1cc(Cc2cnc(N)nc2N)cc(OC)c1OCCCCCn1cc(CNS(=O)(=O)c2cccc3c(N(C)C)cccc23)nn1 [compound 14c]
Result string: 6.29
